Sequence of the target: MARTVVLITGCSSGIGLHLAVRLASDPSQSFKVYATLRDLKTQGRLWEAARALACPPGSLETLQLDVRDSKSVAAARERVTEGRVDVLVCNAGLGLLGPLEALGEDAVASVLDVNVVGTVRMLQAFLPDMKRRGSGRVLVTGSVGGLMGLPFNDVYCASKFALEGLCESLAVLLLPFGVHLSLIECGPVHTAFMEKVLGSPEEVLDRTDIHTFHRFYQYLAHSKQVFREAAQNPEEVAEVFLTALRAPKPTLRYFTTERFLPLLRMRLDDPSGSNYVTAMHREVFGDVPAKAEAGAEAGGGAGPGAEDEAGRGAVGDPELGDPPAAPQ
Measured log10(IC50) values are reported for all entries that follow.
Measured property: log10(IC50) (log10 of the value in µM)

- Compound: "Cc1cc(-c2cnc(-c3cccc(O)c3)s2)ccc1O"
  Measured property: "log10(IC50)"
  Reported measurement: -1.00
- Compound: "CS(=O)(=O)Nc1cccc(-c2ccc(-c3cccc(O)c3)s2)c1"
  Measured property: "log10(IC50)"
  Reported measurement: -0.28
- Compound: "Oc1ccc(-c2csc(-c3cccc(O)c3)n2)cc1"
  Measured property: "log10(IC50)"
  Reported measurement: -0.49
- Compound: "Oc1ccc(-c2ccsc2-c2cccc(O)c2)cc1 [Compound 28, 3-[3-(4-Hydroxyphenyl)-2-thienyl]phenol]"
  Measured property: "log10(IC50)"
  Reported measurement: 0.53
- Compound: "Oc1cccc(-c2cnc(-c3cccc(O)c3)cn2)c1"
  Measured property: "log10(IC50)"
  Reported measurement: 0.00
- Compound: "Oc1ccc(-c2ccc(-c3cccc(O)c3)s2)cc1 [Compound 29, 3-[5-(4-Hydroxyphenyl)-2-thienyl]phenol]"
  Measured property: "log10(IC50)"
  Reported measurement: -1.22
- Compound: "Oc1ccc(-c2ncc(-c3cccc(O)c3)s2)cc1"
  Measured property: "log10(IC50)"
  Reported measurement: -0.74
- Compound: "Oc1cccc(-c2ccc(-c3cccc(F)c3)s2)c1 [Compound 50, 3-[5-(3-Fluorophenyl)-2-thienyl]phenol]"
  Measured property: "log10(IC50)"
  Reported measurement: -0.28
- Compound: "Oc1cccc(-c2cnc(-c3cccc(O)c3)s2)c1"
  Measured property: "log10(IC50)"
  Reported measurement: -0.55
- Compound: "Oc1cccc(-c2ccc(-c3ccc(O)c(F)c3)s2)c1"
  Measured property: "log10(IC50)"
  Reported measurement: -2.00
- Compound: "Oc1cccc(-c2ccc(-c3ccc(F)cc3)s2)c1 [Compound 54, 3-[5-(4-Fluorophenyl)-2-thienyl]phenol]"
  Measured property: "log10(IC50)"
  Reported measurement: -0.14
- Compound: "Oc1ccc(-c2csc(-c3cccc(O)c3)c2)cc1 [Compound 33, 3-[4-(4-Hydroxyphenyl)-2-thienyl]phenol]"
  Measured property: "log10(IC50)"
  Reported measurement: -1.15
- Compound: "Oc1cccc(-c2ccc(-c3ccc(O)c(O)c3)s2)c1"
  Measured property: "log10(IC50)"
  Reported measurement: -0.10
- Compound: "Oc1ccc(-c2cc(-c3cccc(O)c3)cs2)cc1 [Compound 32, 3-[5-(4-Hydroxyphenyl)-3-thienyl]phenol]"
  Measured property: "log10(IC50)"
  Reported measurement: -0.89
- Compound: "Cc1cc(-c2csc(-c3cccc(O)c3)c2)ccc1O"
  Measured property: "log10(IC50)"
  Reported measurement: -1.00
- Compound: "Oc1cccc(-c2ccc(-c3cccc(O)c3)nc2)c1"
  Measured property: "log10(IC50)"
  Reported measurement: -1.00

* * *

- Measured target: CYP1A2 (Homo sapiens)
- Sequence (P05177 1-516): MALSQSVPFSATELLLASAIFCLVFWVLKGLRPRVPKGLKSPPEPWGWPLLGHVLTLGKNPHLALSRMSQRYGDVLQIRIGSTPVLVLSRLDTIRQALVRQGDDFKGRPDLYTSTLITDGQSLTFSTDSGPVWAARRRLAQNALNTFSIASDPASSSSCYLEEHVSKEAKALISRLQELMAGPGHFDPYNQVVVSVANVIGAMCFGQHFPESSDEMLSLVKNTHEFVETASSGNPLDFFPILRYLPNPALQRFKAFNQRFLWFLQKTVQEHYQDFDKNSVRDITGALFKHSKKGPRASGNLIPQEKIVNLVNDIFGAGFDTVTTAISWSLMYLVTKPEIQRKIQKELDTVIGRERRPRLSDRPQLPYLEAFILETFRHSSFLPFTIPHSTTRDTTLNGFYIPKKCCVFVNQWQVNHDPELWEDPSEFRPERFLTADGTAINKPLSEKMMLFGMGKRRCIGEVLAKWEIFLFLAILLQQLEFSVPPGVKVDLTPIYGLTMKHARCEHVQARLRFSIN
pIC50: −log10 of the molar value.
Measured property: pIC50

- Molecule: "Oc1cccc(-c2cnc(-c3cccc(O)c3)s2)c1"
  Reported measurement: 5.31
- Molecule: "Oc1cccc(-c2ccc(-c3cccc(O)c3)cc2)c1 [Compound 42, [1,1′,4′,1″]Terphenyl-3,3′-diol]"
  Reported measurement: 4.76
- Molecule: "Oc1ccc(-c2ccsc2-c2cccc(O)c2)cc1 [Compound 28, 3-[3-(4-Hydroxyphenyl)-2-thienyl]phenol]"
  Reported measurement: 5.27
- Molecule: "Oc1ccc(-c2cc(-c3cccc(O)c3)cs2)cc1 [Compound 32, 3-[5-(4-Hydroxyphenyl)-3-thienyl]phenol]"
  Reported measurement: 5.06

* * *

Catalogue of Papp at 180 min, 50 μM readings, one per entry.
- Assay text: CaCo2 transport assay
- Type: in vitro ADME
- Conditions used: human, Caco-2; 50 μM in donor compartment; read-out: Papp [cm/sec ± rel. SD]

- Molecule: "Oc1ccc(-c2ccc(-c3cccc(O)c3)s2)cc1 [Compound 29, 3-[5-(4-Hydroxyphenyl)-2-thienyl]phenol]"
  Papp at 180 min, 50 μM [×10⁻⁶ cm/s]: 22
- Molecule: "Oc1ccc(-c2cc(-c3cccc(O)c3)on2)cc1 [Compound 18]"
  Papp at 180 min, 50 μM [×10⁻⁶ cm/s]: 7.3
- Molecule: "Oc1cccc(-c2nsc(-c3cccc(O)c3)n2)c1 [Compound 37]"
  Papp at 180 min, 50 μM [×10⁻⁶ cm/s]: 3.6
- Molecule: "Oc1ccc(-c2cnc(-c3cccc(O)c3)s2)cc1 [Compound 19]"
  Papp at 180 min, 50 μM [×10⁻⁶ cm/s]: 7.8
- Molecule: "Oc1ccc(-c2cnc(-c3cccc(O)c3)o2)cc1 [Compound 8]"
  Papp at 180 min, 50 μM [×10⁻⁶ cm/s]: 7.9

* * *

- Measured target: CYP2C19 (Homo sapiens, UniProt P33261)
- Construct: purchased Becton Dickinson GmbH (Heidelberg)
- Sequence (P33261 whole entry): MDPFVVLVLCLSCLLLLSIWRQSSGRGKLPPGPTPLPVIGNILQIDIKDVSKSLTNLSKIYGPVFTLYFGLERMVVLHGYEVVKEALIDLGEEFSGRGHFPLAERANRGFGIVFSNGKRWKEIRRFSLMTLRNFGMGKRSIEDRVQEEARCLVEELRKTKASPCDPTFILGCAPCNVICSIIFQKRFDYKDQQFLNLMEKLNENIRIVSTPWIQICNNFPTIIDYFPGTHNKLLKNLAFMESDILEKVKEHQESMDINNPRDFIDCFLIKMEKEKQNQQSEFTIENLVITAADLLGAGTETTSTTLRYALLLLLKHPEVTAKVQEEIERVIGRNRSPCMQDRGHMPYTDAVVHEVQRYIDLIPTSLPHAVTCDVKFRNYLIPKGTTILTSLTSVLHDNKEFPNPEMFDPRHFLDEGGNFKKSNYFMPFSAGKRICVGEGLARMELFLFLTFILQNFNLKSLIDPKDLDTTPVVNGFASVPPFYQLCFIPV
- Assay text: Inhibition of hepatic CYP enzymes: CYP2C19
- Assay type: biochemical

- Compound: "Oc1ccc(-c2cc(-c3cccc(O)c3)cs2)cc1 [Compound 32, 3-[5-(4-Hydroxyphenyl)-3-thienyl]phenol]"
  IC50 / µM: 4.43

* * *

- Measured target: CYP2C19 (Homo sapiens, UniProt P33261)
- Construct: purchased Becton Dickinson GmbH (Heidelberg)
- Assay text: Inhibition of hepatic CYP enzymes: CYP2C19
- Type: biochemical
- Conditions used: read-out: CYP2C19 IC50 (mean ± SD)

- Compound: "Oc1cccc(-c2cnc(-c3cccc(O)c3)s2)c1 [Compound 22, 3,3′-(1,3-thiazole-2,5-diyl)diphenol]"
  Output unit: "µM"
  IC50: 4.57
- Compound: "Oc1ccc(-c2ccsc2-c2cccc(O)c2)cc1 [Compound 28, 3-[3-(4-Hydroxyphenyl)-2-thienyl]phenol]"
  Output unit: "µM"
  IC50: 3.37
- Compound: "Oc1cccc(-c2ccc(-c3cccc(O)c3)cc2)c1 [Compound 42, [1,1′,4′,1″]Terphenyl-3,3′-diol]"
  Output unit: "µM"
  IC50: 4.2

* * *

- Assay text: In vivo pharmacokinetics (rat), peroral cassette dosing
- Parameters: species or system Wistar rats
- Conditions used: 10 mg/kg
# tz (time of last sample with quantifiable concentration) listing for each entry below
Measured property: tz (time of last sample with quantifiable concentration) (h)

- Molecule: "Oc1cccc(-c2nnc(-c3cccc(O)c3)nn2)c1"
  Output unit: "h"
  Reported measurement: 10.0
- Molecule: "Cc1cc(-c2ccc(-c3cccc(O)c3)s2)ccc1O"
  Output unit: "h"
  Reported measurement: 24.0
- Molecule: "Oc1cccc(-c2ccc(-c3ccc(O)c(F)c3)s2)c1"
  Output unit: "h"
  Reported measurement: 24.0
- Molecule: "Oc1ccc(-c2ccc(-c3cccc(O)c3)s2)cc1 [Compound 29, 3-[5-(4-Hydroxyphenyl)-2-thienyl]phenol]"
  Output unit: "h"
  Reported measurement: 10.0

* * *

- Assay text: in vitro
- Conditions used: rat, microsomes, pH 7.4
Measured property: half-life (min)

- Compound: "Oc1ccc(-c2ccsc2-c2cccc(O)c2)cc1 [Compound 28, 3-[3-(4-Hydroxyphenyl)-2-thienyl]phenol]"
  Reported measurement: 10.6

* * *

- Assay text: CaCo2 transport assay
- Type: in vitro ADME
- Conditions used: human, Caco-2; 50 μM in donor compartment; read-out: Papp [cm/sec ± rel. SD]
// reported Papp at 180 min, 50 μM for each item listed
Measured property: Papp at 180 min, 50 μM (×10⁻⁶ cm/s)

- Compound: "Oc1ccc(-c2cccc(-c3ccc(O)cc3)c2)cc1 [Compound 41, [1,1′;3′,1″]Terphenyl-4,4″-diol]"
  Measured property: "Papp at 180 min, 50 μM"
  Reported measurement: 12.6
- Compound: "Oc1ccc(-c2ncc(-c3cccc(O)c3)s2)cc1 [Compound 20]"
  Measured property: "Papp at 180 min, 50 μM"
  Reported measurement: 11.7
- Compound: "Cc1cc(O)cc(-c2ccc(-c3ccc(O)cc3)s2)c1 [Compound 53]"
  Measured property: "Papp at 180 min, 50 μM"
  Reported measurement: 24.2
- Compound: "Oc1ccc(-c2ccsc2-c2cccc(O)c2)cc1 [Compound 28, 3-[3-(4-Hydroxyphenyl)-2-thienyl]phenol]"
  Measured property: "Papp at 180 min, 50 μM"
  Reported measurement: 11.5
